Each entry below carries its recorded T/C.
# System: L1210 leukemia ip in BDF1 mice, survival T/C
# experimentalDetails: NCI In Vivo Anticancer Drug Screen. Data for tumor model L1210 Leukemia (intraperitoneal) in B6D2F1 (BDF1) mice
# conditionsUsed: endpoint: mean survival time; dose: 50.0 mg/kg/injection; schedule: Q04DX002 (ip); vehicle: saline with Tween-80; higher = longer survival
# Protocol: The antitumor activity of compounds was measured in mice bearing transplantable tumors. Survival or tumor size were measured and the results are expressed as the measurement made in the treated group (T) divided by the measurement made in the vehicle treated control group (C). The tumor model used in this assay is L1210 Leukemia (intraperitoneal) in B6D2F1 (BDF1) mice
Toxic doses and inconclusive results are not listed.

compound | T/C
C=CCNC(=O)c1ccccc1 | 93 % of control
Cc1cccc(N2CCNCC2)c1 | 92 % of control
NC(=O)c1c(/N=C/c2cc(Br)ccc2O)sc2c1CCCC2 | 87 % of control
c1ccc(CC(CNCC2C(c3ccccc3)C2c2ccccc2)c2ccccc2)cc1 (configuration not stated) | 90 % of control
COC1OC(CO)C(OS(=O)(=O)c2ccc(C)cc2)C(C(=O)Oc2ccccc2)C1OC(=O)c1ccccc1 (configuration not stated) | 93 % of control
Cc1csc2nccc(Cl)c12 | 98 % of control
C1=C(c2ccccc2)C(c2ccccc2)c2ccccc21 (configuration not stated) | 90 % of control

----------
# Test system: L1210 leukemia ip in BDF1 mice, survival T/C
# experimentalDetails: NCI In Vivo Anticancer Drug Screen. Data for tumor model L1210 Leukemia (intraperitoneal) in B6D2F1 (BDF1) mice
# conditionsUsed: endpoint: mean survival time; dose: 100.0 mg/kg/injection; schedule: Q04DX003 (ip); vehicle: saline; higher = longer survival
Toxic doses and inconclusive results are not listed.
Each entry below carries its recorded T/C.
valueType: T/C

compound | valueType | result
CC12CC3CC(Br)(C1)CC(C(=O)O)(C3)C2 (centres undefined) | T/C | 103 % of control
Cc1nc2cnn(C)c2nc1C | T/C | 106 % of control
CCCCCCCCC1SC1CCCCCCCC(=O)N(C)c1ccccc1 (centres undefined) | T/C | 97 % of control
CCC(CO)NC(=O)C(O)C(O)C(O)C(O)CO (centres undefined) | T/C | 94 % of control
CCS(=O)(=O)CC | T/C | 100 % of control
COC(OC(CO)C(O)S(=O)(=O)O)C(O)S(=O)(=O)O (centres undefined) | T/C | 122 % of control
CCOC(=O)NC(C(=O)OC)C(=O)OC | T/C | 100 % of control
O=[N+]([O-])C1C=CCS1(=O)=O (centres undefined) | T/C | 95 % of control
C=CC1CNCCC1CC(=O)OCC (centres undefined) | T/C | 95 % of control
N#[N+]c1c(O)cc(S(=O)(=O)O)c2ccccc12 | T/C | 94 % of control
CN=C(N)N(C)NCc1ccccc1 | T/C | 105 % of control
Cc1nc(Cl)c2cnccn12 | T/C | 88 % of control
CCNC1(c2ccc(Cl)cc2)CCCCC1=O (centres undefined) | T/C | 104 % of control
NCC(=O)NC(CO)C(=O)O (centres undefined) | T/C | 110 % of control

----------
# System: L1210 leukemia ip in BDF1 mice, survival T/C
# experimentalDetails: NCI In Vivo Anticancer Drug Screen. Data for tumor model L1210 Leukemia (intraperitoneal) in B6D2F1 (BDF1) mice
# conditionsUsed: endpoint: mean survival time; dose: 50.0 mg/kg/injection; schedule: Q01DX009 (ip); vehicle: saline; higher = longer survival
Inconclusive results and toxic doses are left out.
Each entry below carries its recorded T/C.

structureSmilesString | targetOfAssay | T/C
N=c1cc(-c2ccc(Cl)cc2)ss1 | L1210 leukemia ip in BDF1 mice, survival T/C | 91 % of control
Cc1nc(Cl)c2cnccn12 | L1210 leukemia ip in BDF1 mice, survival T/C | 103 % of control
COc1ccc(CC[N+]2=Cc3cc(OC)c(OC)cc3CC2)cc1OC | L1210 leukemia ip in BDF1 mice, survival T/C | 97 % of control
CCN(CC)CC(=O)NCC(CCN1CCCCC1)(CCN1CCCCC1)c1cccc2ccccc12 | L1210 leukemia ip in BDF1 mice, survival T/C | 104 % of control
COc1cc2c(cc1OC)C(C)=NCC2 | L1210 leukemia ip in BDF1 mice, survival T/C | 110 % of control
CS(=O)(=O)N(CC(=O)O)Cc1ccccc1 | L1210 leukemia ip in BDF1 mice, survival T/C | 101 % of control
CN(C)CC(=O)c1ccc(Cl)cc1 | L1210 leukemia ip in BDF1 mice, survival T/C | 87 % of control
O=S(=O)(CCO)CCO | L1210 leukemia ip in BDF1 mice, survival T/C | 100 % of control

----------
Each entry below carries its recorded T/C.
# System: L1210 leukemia ip in BDF1 mice, survival T/C
# experimentalDetails: NCI In Vivo Anticancer Drug Screen. Data for tumor model L1210 Leukemia (intraperitoneal) in B6D2F1 (BDF1) mice
# conditionsUsed: endpoint: mean survival time; dose: 100.0 mg/kg/injection; schedule: Q01DX001 (ip); vehicle: saline; higher = longer survival
Inconclusive results and toxic doses are left out.

compound | T/C
CC(C)CC(=O)Cc1ccccc1 | 105 % of control
O=C1Nc2cccc3cc(NCC(O)CCCl)cc1c23 (centres undefined) | 90 % of control
O=CN/N=C/c1cc(=O)[nH]c(=O)[nH]1 | 87 % of control
Cc1cc(C)c(SSc2c(C)cc(C)cc2C)c(C)c1 | 104 % of control
O=[N+]([O-])c1ccc(O)c(/C=N/Nc2c3ccccc3nc3ccccc23)c1 | 103 % of control
N#CC(c1cnc2ccccc2n1)c1cccc2ccccc12 (centres undefined) | 94 % of control
CCOC(=O)Cc1c(C)c2cc(C(=O)c3ccccc3)c(O)cc2oc1=O | 98 % of control
COC(=O)C(Nc1ccc([N+](=O)[O-])cc1[N+](=O)[O-])C(O)c1ccccc1 (centres undefined) | 98 % of control
NC(=O)N1CC(c2ccccc2)CCc2ccccc21 (centres undefined) | 98 % of control
O=C(O)c1cccc(C(=O)c2ccc([N+](=O)[O-])cc2)c1 | 97 % of control
COC(OC)C1=CC(=O)NC(NC(=O)C(Cl)Cl)N1 (centres undefined) | 98 % of control
O=C(COc1ccc(Cl)c(Cl)c1)Nc1ccc[n+](Cc2c(Cl)cccc2S(=O)(=O)F)c1 | 88 % of control
Nc1nc(N)c(N=Nc2ccc([As](=O)(O)O)c(O)c2)c(=O)[nH]1 | 91 % of control
COc1ccc(C(N)C(=O)O)cc1 (centres undefined) | 94 % of control
C[N+](C)(C)CCOc1ccc([N+](=O)[O-])cc1 | 104 % of control
CCN(c1ccccc1)C1CCCCC1=O (centres undefined) | 101 % of control
CCCCSC(C)(C)CC | 93 % of control
COc1ccc(/C=C(\CC(=O)c2ccccc2)C(=O)Nc2ccccc2)cc1 | 93 % of control
CC(=O)Nc1ccc(Cc2ccc(NC(C)=O)cc2N)c(N)c1 | 98 % of control
C#CCC(C)OS(=O)(=O)c1ccc(C)cc1 (centres undefined) | 98 % of control
NCCCNCCO | 102 % of control
Cc1nnc2[nH]c(=O)[nH]c(=O)c2n1 | 104 % of control
CCSC(SCC)C(NC(C)=O)C1OC(C)(C)OC1C(O)CO (centres undefined) | 103 % of control
Cc1cc(=O)[nH]c(N2CCOCC2)n1 | 106 % of control
Cc1cccc2c(N=Nc3ccccc3[N+](=O)[O-])c(O)[nH]c12 | 101 % of control
O=[N+]([O-])c1ccc(O)c(N=Cc2ccccn2)c1 | 90 % of control
O=C(NC1CCCCC1)C(=O)NC1CCCCC1 | 98 % of control
CCOC(=O)/C=C(/CC(=O)OCC)Nc1ccc(C)cc1 | 89 % of control
O=[N+]([O-])c1ccc(N/N=C2\CCCc3c2ccc2ccccc32)c([N+](=O)[O-])c1 | 97 % of control
CCOC(=O)CC(=O)CCc1ccccc1 | 104 % of control
CCOC(=O)N1C2c3ccccc3C3C(C21)N3C(=O)OCC (centres undefined) | 105 % of control
Nc1cc(C(=O)O)ccc1Cl | 105 % of control
Cc1ccc2c(c1[N+](=O)[O-])C(=O)c1ccccc1C2=O | 90 % of control
O=S(=O)(CCCCCCl)Cc1ccccc1 | 93 % of control
O=c1[nH]c2ncccc2c(=O)n1O | 100 % of control
CCC(O)C(C)CO (centres undefined) | 103 % of control
O=C1OC2CCCCC2OC1=O (centres undefined) | 101 % of control
COc1cc(CCC(=O)O)cc(/C=N/NC(N)=O)c1O | 101 % of control
CC1(C)C[N+](C)(Cc2ccccc2)N=C1[O-] (centres undefined) | 94 % of control
c1cc2c(c3c1CC1c4cc5c(cc4CCN1C3)OCO5)OCO2 (centres undefined) | 86 % of control
COC(=O)C1C(=O)OC(C)(C)C1c1ccccc1 (centres undefined) | 100 % of control
SCc1ccccc1 | 91 % of control
O=C(OCCN(CCOC(=O)c1ccc([N+](=O)[O-])cc1)c1c[nH]c(=O)[nH]c1=O)c1ccc([N+](=O)[O-])cc1 | 93 % of control
Cc1cc(/C=C/c2ccc(N(CCCl)CCCl)cc2)nc2ccccc12 | 107 % of control
O=S(=O)(O)C(O)C(Cl)(Cl)Cl (centres undefined) | 103 % of control
CC1CC(=O)CC(C)(C)N1 (centres undefined) | 105 % of control
CC(C)C(=O)C(C)(C)C | 102 % of control
NC(=S)N/N=C\c1csc2ccccc12 | 96 % of control
Cc1[nH]c2cc(O)c(O)c(C)c2c1C | 96 % of control
Cn1c(N)c(N=Nc2ccc(S(N)(=O)=O)cc2)c(=O)n(C)c1=O | 94 % of control
O=C(O)c1ccc(NC(Nc2ccc(C(=O)O)cc2)C(=O)c2ccccc2)cc1 | 95 % of control
Cc1ccc(C)c(SC2CCCCC2=O)c1 (centres undefined) | 94 % of control
O=C(O)CCCC(=O)CCCC(=O)O | 98 % of control
C[N+](C)(C)c1ncnc2c1ncn2C1CC(O)C(CO)O1 (centres undefined) | 96 % of control
